Values were extracted from ChEMBL document CHEMBL4196019.

Test: Clearance in ICR mouse at 0.5 mg/kg, iv by HPLC analysis
Format: ADME, organism-based
Details: in vivo
readout.name: clearance (mL/min/kg)

P. CCN1CCN(Cc2ccc(Nc3ncc(F)c(-c4cc(F)c5nc(C)n(C(C)C)c5c4)n3)nc2)CC1
Q. CCN1CCC(N2CCc3nc(Nc4ncc(F)c(-c5cc(F)c6nc(C)n(C(C)C)c6c5)n4)ccc3C2)CC1
IN: Kindly compare P with Q and tell me which has the lower clearance figure. API: response body contains the label of the selected item.
OUT: Q
(Q: 15.5 mL/min/kg, P: 44.7 mL/min/kg)

----------
Test: Cmax in Sprague-Dawley rat at 100 mg/kg, po via gavage administered as single dose by HPLC analysis
Assay type: ADME, organism-based
Set-up: dose 100 mg/kg, route oral
Details: in vivo
readout.name: Cmax (ng/mL)
Value expressed in ng/mL; do not type the unit.

IN: Query (compound): CCN1CCC(N2CCc3nc(Nc4ncc(F)c(-c5cc(F)c6nc(C)n(C(C)C)c6c5)n4)ccc3C2)CC1 ; field requested: Cmax
OUT: 304
